TARGET: Dihydrofolate reductase (Mycobacterium tuberculosis, UniProt P9WNX1)
Sequence (P9WNX1 whole entry): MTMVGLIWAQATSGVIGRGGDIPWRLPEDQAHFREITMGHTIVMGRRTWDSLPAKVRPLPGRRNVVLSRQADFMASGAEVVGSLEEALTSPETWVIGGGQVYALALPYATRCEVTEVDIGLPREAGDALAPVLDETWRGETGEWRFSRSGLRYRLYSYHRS
METRIC: pKi
Entry type: numeric. Quantity: pKi, the -log10 of concentration in molar units.

Lab note: compound "NNC(=O)c1ccncc1" tested on Dihydrofolate reductase (Mycobacterium tuberculosis, UniProt P9WNX1); recorded pKi was 9.00
